- Method Description: Equilibrium solubility of the compound in water at pH 2 to 10
- Assay type: physicochemical
Quantity: solubility thermodynamic (µg/mL)
The response must be a number in µg/mL with no trailing unit.

// fetch solubility thermodynamic given entry CC(C)S(=O)(=O)N[C@H]1Cc2ccc(-c3ccc(F)nc3)cc2C1
100

----------
- Method Description: Volume of distribution at steady state in Sprague-Dawley rat at 1 mg/kg, iv and 3 mg/kg, po
- Assay type: ADME, organism-based
- Condition Label: in vivo, read-out: Vdss
Quantity: Vd (L/kg)
The response must be a number in L/kg with no trailing unit.

// fetch Vd given entry CC(C)S(=O)(=O)N[C@H]1Cc2ccc(-c3ccc(F)cn3)cc2C1
2.2

// fetch Vd given entry CC(C)S(=O)(=O)N[C@H]1Cc2ccc(-c3ccc(F)nc3)cc2C1
2.4

// fetch Vd given entry Cc1ccc(-c2ccc3c(c2)C[C@@H](NS(=O)(=O)C(C)C)C3)cn1
2.4

----------
- Method Description: Half life in cynomolgus monkey at 0.5 mg/kg, po
- Type: ADME, organism-based, Macaca fascicularis
- Parameters: dose 0.5 mg/kg, route oral
- Condition Label: in vivo
Quantity: half-life (h)
The response must be a number in h with no trailing unit.

// fetch half-life given entry CC(C)S(=O)(=O)N[C@H]1Cc2ccc(-c3ccc(F)nc3)cc2C1
24

----------
Kindly state pKa for each of the entries shown.
- Method Description: physchem
- Description: Dissociation constant, pKa of the compound
Output: the number by itself.

// fetch pKa given entry Cc1ccncc1-c1ccc2c(c1)CC(NS(=O)(=O)C(C)C)C2 (stereo not drawn)
5.8

// fetch pKa given entry Cc1ccc(-c2ccc3c(c2)CC(NS(=O)(=O)C(C)C)C3)nc1 (stereo not drawn)
4.9

// fetch pKa given entry CC(C)S(=O)(=O)NC1Cc2ccc(-c3cccnc3)cc2C1 (stereo not drawn)
5.1

// fetch pKa given entry CC(C)S(=O)(=O)NC1Cc2ccc(-c3ccc(F)cn3)cc2C1 (stereo not drawn)
2.7

// fetch pKa given entry Cc1ccc(-c2ccc3c(c2)C[C@@H](NS(=O)(=O)C(C)C)C3)cn1
5.8

// fetch pKa given entry Cc1ccc(-c2ccc3c(c2)CC(NS(=O)(=O)C(C)C)C3)cn1 (stereo not drawn)
5.7

// fetch pKa given entry Cc1cccnc1-c1ccc2c(c1)CC(NS(=O)(=O)C(C)C)C2 (stereo not drawn)
4.9

// fetch pKa given entry CC(C)S(=O)(=O)N[C@H]1Cc2ccc(-c3ccc(F)cn3)cc2C1
2.7

----------
- Method Description: Blood clearance in Sprague-Dawley rat at 1 mg/kg, iv and 3 mg/kg, po
- Type: ADME, organism-based
Kindly state clearance for each of the entries shown.
The response must be a number in mL/min/kg with no trailing unit.

// fetch clearance given entry CC(C)S(=O)(=O)N[C@H]1Cc2ccc(-c3ccc(F)cn3)cc2C1
24

// fetch clearance given entry Cc1ccc(-c2ccc3c(c2)C[C@@H](NS(=O)(=O)C(C)C)C3)cn1
55

// fetch clearance given entry CC(C)S(=O)(=O)N[C@H]1Cc2ccc(-c3ccc(F)nc3)cc2C1
5.4

----------
- Method Description: Oral bioavailability in cynomolgus monkey at 0.5 mg/kg
- Assay type: ADME, organism-based, Macaca fascicularis
- Condition Label: in vivo
Quantity: bioavailability (%)
The response must be a number in % with no trailing unit.

// fetch bioavailability given entry CC(C)S(=O)(=O)N[C@H]1Cc2ccc(-c3ccc(F)nc3)cc2C1
51

----------
- Method Description: Volume of distribution at steady state in cynomolgus monkey at 0.125 mg/kg, iv and 0.5 mg/kg, po
- Type: ADME, organism-based, Macaca fascicularis
- Condition Label: in vivo, read-out: Vdss
Quantity: Vd (L/kg)
The response must be a number in L/kg with no trailing unit.

// fetch Vd given entry CC(C)S(=O)(=O)N[C@H]1Cc2ccc(-c3ccc(F)nc3)cc2C1
1.8

----------
- Method Description: Oral bioavailability in Beagle dog at 0.5 mg/kg
- Format: ADME, organism-based, Canis lupus familiaris
- Condition Label: in vivo
Quantity: bioavailability (%)
The response must be a number in % with no trailing unit.

// fetch bioavailability given entry CC(C)S(=O)(=O)N[C@H]1Cc2ccc(-c3ccc(F)nc3)cc2C1
61

----------
- Method Description: Blood clearance in cynomolgus monkey at 0.125 mg/kg, iv and 0.5 mg/kg, po
- Format: ADME, organism-based, Macaca fascicularis
Quantity: clearance (mL/min/kg)
The response must be a number in mL/min/kg with no trailing unit.

// fetch clearance given entry CC(C)S(=O)(=O)N[C@H]1Cc2ccc(-c3ccc(F)nc3)cc2C1
1.4

----------
- Method Description: Plasma protein binding in monkey at 1 ug/ml after 6 hrs by equilibrium dialysis method
- Type: ADME, cell-free, Macaca mulatta
- Condition Label: rhesus monkey, read-out: PPB (converted)
Quantity: fraction unbound at 6 h, 1 ug/ml
Output: the number by itself.

// fetch fraction unbound at 6 h, 1 ug/ml given entry CC(C)S(=O)(=O)N[C@H]1Cc2ccc(-c3ccc(F)nc3)cc2C1
0.152

----------
- Method Description: Plasma protein binding in dog at 1 ug/ml after 6 hrs by equilibrium dialysis method
- Assay type: ADME, cell-free, Canis lupus familiaris
- Condition Label: read-out: PPB (converted)
Quantity: fraction unbound at 6 h, 1 ug/ml
Output: the number by itself.

// fetch fraction unbound at 6 h, 1 ug/ml given entry CC(C)S(=O)(=O)N[C@H]1Cc2ccc(-c3ccc(F)nc3)cc2C1 [GSK-729327]
0.205

----------
- Method Description: Plasma protein binding in rat at 1 ug/ml after 6 hrs by equilibrium dialysis method
- Type: ADME, cell-free
- Condition Label: read-out: PPB (converted)
Quantity: fraction unbound at 6 h, 1 ug/ml
Output: the number by itself.

// fetch fraction unbound at 6 h, 1 ug/ml given entry CC(C)S(=O)(=O)NC1Cc2ccc(-c3cccc(NS(C)(=O)=O)c3)cc2C1 (stereo not drawn)
0.041

// fetch fraction unbound at 6 h, 1 ug/ml given entry CC(C)S(=O)(=O)NC1Cc2ccc(-c3cccc(CN4CCCC4=O)c3)cc2C1 (stereo not drawn)
0.024

// fetch fraction unbound at 6 h, 1 ug/ml given entry CC(C)S(=O)(=O)NC1Cc2ccc(-c3cccc(CN4CCCS4(=O)=O)c3)cc2C1 (stereo not drawn)
0.033

// fetch fraction unbound at 6 h, 1 ug/ml given entry Cc1ccc(-c2ccc3c(c2)C[C@@H](NS(=O)(=O)C(C)C)C3)cn1
0.078

// fetch fraction unbound at 6 h, 1 ug/ml given entry CC(=O)Nc1cccc(-c2ccc3c(c2)CC(NS(=O)(=O)C(C)C)C3)c1 (stereo not drawn)
0.051

// fetch fraction unbound at 6 h, 1 ug/ml given entry CC(C)S(=O)(=O)N[C@H]1Cc2ccc(-c3ccc(F)cn3)cc2C1
0.097

// fetch fraction unbound at 6 h, 1 ug/ml given entry CC(C)S(=O)(=O)NC1Cc2ccc(-c3cccc(N(C)S(C)(=O)=O)c3)cc2C1 (stereo not drawn)
0.036

// fetch fraction unbound at 6 h, 1 ug/ml given entry CC(C)S(=O)(=O)N[C@H]1Cc2ccc(-c3ccc(F)nc3)cc2C1
0.133

----------
- Method Description: Half life in Beagle dog at 0.125 mg/kg, iv
- Format: ADME, organism-based, Canis lupus familiaris
- Set-up: dose 0.125 mg/kg, route intravenous
- Condition Label: in vivo
Quantity: half-life (h)
The response must be a number in h with no trailing unit.

// fetch half-life given entry CC(C)S(=O)(=O)N[C@H]1Cc2ccc(-c3ccc(F)nc3)cc2C1
16

----------
- System: Liver microsomes
Output fulfilled for records whose IC50 is lower than 1000 nM, not fulfilled for records at or above 1000 nM.

Does CC(C)S(=O)(=O)N[C@H]1Cc2ccc(-c3ccc(F)cn3)cc2C1 have IC50 strictly under 1000 nM?
fulfilled

Does CC(C)S(=O)(=O)NC1Cc2ccc(-c3ccc(F)cn3)cc2C1 (stereo not drawn) have IC50 strictly under 1000 nM?
fulfilled

Does Cc1ccc(-c2ccc3c(c2)C[C@@H](NS(=O)(=O)C(C)C)C3)cn1 have IC50 strictly under 1000 nM?
fulfilled

Does CC(C)S(=O)(=O)NC1Cc2ccc(-c3cccnc3F)cc2C1 (stereo not drawn) have IC50 strictly under 1000 nM?
not fulfilled

Does Cc1ccc(-c2ccc3c(c2)CC(NS(=O)(=O)C(C)C)C3)cn1 (stereo not drawn) have IC50 strictly under 1000 nM?
fulfilled

Does CC(C)S(=O)(=O)NC1Cc2ccc(-c3cccnc3)cc2C1 (stereo not drawn) have IC50 strictly under 1000 nM?
fulfilled

Does CC(C)S(=O)(=O)N[C@H]1Cc2ccc(-c3ccc(F)nc3)cc2C1 have IC50 strictly under 1000 nM?
fulfilled

Does Cc1ccncc1-c1ccc2c(c1)CC(NS(=O)(=O)C(C)C)C2 (stereo not drawn) have IC50 strictly under 1000 nM?
not fulfilled

Does Cc1ccc(-c2ccc3c(c2)CC(NS(=O)(=O)C(C)C)C3)nc1 (stereo not drawn) have IC50 strictly under 1000 nM?
fulfilled

Does CC(C)S(=O)(=O)NC1Cc2ccc(-c3ccc(Cl)cn3)cc2C1 (stereo not drawn) have IC50 strictly under 1000 nM?
fulfilled

Does CC(C)S(=O)(=O)NC1Cc2ccc(-c3cncc(C#N)c3)cc2C1 (stereo not drawn) have IC50 strictly under 1000 nM?
fulfilled

Does Cc1cccnc1-c1ccc2c(c1)CC(NS(=O)(=O)C(C)C)C2 (stereo not drawn) have IC50 strictly under 1000 nM?
not fulfilled

Does CC(C)S(=O)(=O)NC1Cc2ccc(-c3ccc(F)nc3)cc2C1 (stereo not drawn) have IC50 strictly under 1000 nM?
not fulfilled
